Examples of compounds with documented viability, T/C follow.
- System: 186277-243-T-J2-PDC complex spheroid growth
- METHOD NOTES: Anticancer human tumor 186277-243-T-J2-PDC patient-derived colon adenocarcinoma cell line growth inhibition [AhR]
- REPORTED CONDITIONS: second compound 10 µM; first compound 0.03 µM; hits give low values

Examples with answers:
{"COMPOUND": "Nc1ncn(C2CC(O)C(CO)S2)c(=O)n1 (stereo not drawn) + CC(CO)NC(=O)c1cc(-c2ccc(Cl)cc2)nn(-c2cnn(C)c2)c1=O", "TARGET OF ASSAY": "186277-243-T-J2-PDC complex spheroid growth", "viability, T/C": "66.8%"}
{"COMPOUND": "CCN(c1cc(-c2ccc(CN3CCOCC3)cc2)cc(C(=O)NCc2c(C)cc(C)[nH]c2=O)c1C)C1CCOCC1 + CC(CO)NC(=O)c1cc(-c2ccc(Cl)cc2)nn(-c2cnn(C)c2)c1=O", "TARGET OF ASSAY": "186277-243-T-J2-PDC complex spheroid growth", "viability, T/C": "69.8%"}

Consider now this further compound.
I am curious: what viability, T/C value has been reported for Nc1ncn(C2CC(O)C(CO)S2)c(=O)n1 (stereo not drawn) + Cc1ccccc1N=Nc1ccc(NC(=O)c2ccnn2C)c(C)c1 ?
99.5%

----------
# maps each entry to its viability, T/C
- Tested on: 186277-243-T-J2-PDC complex spheroid growth
- METHOD NOTES: Anticancer human tumor 186277-243-T-J2-PDC cell line growth inhibition [AhR];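 also: luminescent signal used as a stand-in for viable cell amount; spheroids exposed to compounds for seven days before the viability read; 100% = DMSO vehicle control wells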
- REPORTED CONDITIONS: second compound 3.16 µM; first compound 1 µM; hits give low values
Unit % implied. Number only.

Fill in: viability, T/C of COc1ccc([C@@H](O)c2cc(-c3ncnc4cc(N5CCOCC5)ccc34)c(F)cc2Cl)nn1 + CC(CO)NC(=O)c1cc(-c2ccc(Cl)cc2)nn(-c2cnn(C)c2)c1=O is ___
74.8

If you can, please state the reported viability, T/C value of CC1COCCN1c1cc(C2(S(C)(=N)=O)CC2)nc(-c2ccnc3[nH]ccc23)n1 (stereo unspecified) + Cc1ccccc1N=Nc1ccc(NC(=O)c2ccnn2C)c(C)c1 .
95.1

If you can, please state the reported viability, T/C value of COc1ccc([C@@H](O)c2cc(-c3ncnc4cc(N5CCOCC5)ccc34)c(F)cc2Cl)nn1 + Cc1cncc(-c2nc(NCCc3c[nH]c4ccccc34)c3ncn(C(C)C)c3n2)c1 .
106

# viability, T/C lookup, item O=C(c1cc(Cc2n[nH]c(=O)c3ccccc23)ccc1F)N1CCN(C(=O)C2CC2)CC1 + CC(CO)NC(=O)c1cc(-c2ccc(Cl)cc2)nn(-c2cnn(C)c2)c1=O
90.9

Could you tell me which viability, T/C is on file for CC(C)c1c(-c2ccccc2)nc2c(C#N)c[nH]n2c1=O + Cc1ccccc1N=Nc1ccc(NC(=O)c2ccnn2C)c(C)c1 ?
99.7

What viability, T/C value was documented for this compound, COc1cc(Nc2ncc3c(n2)-c2ccc(Cl)cc2C(c2c(F)cccc2OC)=NC3)ccc1C(=O)O + Cc1ccccc1N=Nc1ccc(NC(=O)c2ccnn2C)c(C)c1 ?
103

----------
- System: 186277-243-T-J2-PDC complex spheroid growth
- METHOD NOTES: Anticancer human tumor 186277-243-T-J2-PDC cell line growth inhibition [AhR];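 also: luminescent signal used as a stand-in for viable cell amount; spheroids exposed to compounds for seven days before the viability read; 100% = DMSO vehicle control wells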
- REPORTED CONDITIONS: second compound 1 µM; first compound 0.316 µM; hits give low values
- Excerpt: Multicellular complex tumor spheroid response to aryl hydrocarbon receptor antagonists in combination with a variety of drugs and investigational agents in selected tumor cell lines […] Compounds. […] If the clinical Cmax for an agent had not been determined, the highest concentration tested was 10 microM (Table 1). […]
VALUE KIND: viability, T/C (%)
Value expressed in %; do not type the unit.

{"COMPOUND": "Nc1ccn(C2OC(CO)C(O)C2(F)F)c(=O)n1 (configuration not stated) + Cc1cncc(-c2nc(NCCc3c[nH]c4ccccc34)c3ncn(C(C)C)c3n2)c1", "VALUE KIND": "viability, T/C", "ASSAY RESULT": 8.67}
{"COMPOUND": "O=C(c1cc(Cc2n[nH]c(=O)c3ccccc23)ccc1F)N1CCN(C(=O)C2CC2)CC1 + CC(CO)NC(=O)c1cc(-c2ccc(Cl)cc2)nn(-c2cnn(C)c2)c1=O", "VALUE KIND": "viability, T/C", "ASSAY RESULT": 98}
{"COMPOUND": "CC(C)c1c(-c2ccccc2)nc2c(C#N)c[nH]n2c1=O + Cc1ccccc1N=Nc1ccc(NC(=O)c2ccnn2C)c(C)c1", "VALUE KIND": "viability, T/C", "ASSAY RESULT": 115}
{"COMPOUND": "COc1cc(Nc2ncc3c(n2)-c2ccc(Cl)cc2C(c2c(F)cccc2OC)=NC3)ccc1C(=O)O + Cc1ccccc1N=Nc1ccc(NC(=O)c2ccnn2C)c(C)c1", "VALUE KIND": "viability, T/C", "ASSAY RESULT": 114}
{"COMPOUND": "O=C(c1cc(Cc2n[nH]c(=O)c3ccccc23)ccc1F)N1CCN(C(=O)C2CC2)CC1 + Cc1ccccc1N=Nc1ccc(NC(=O)c2ccnn2C)c(C)c1", "VALUE KIND": "viability, T/C", "ASSAY RESULT": 110}

Lookup: viability, T/C / 186277-243-T-J2-PDC complex spheroid growth / CC1COCCN1c1cc(C2(S(C)(=N)=O)CC2)nc(-c2ccnc3[nH]ccc23)n1 (configuration not stated) + Cc1cncc(-c2nc(NCCc3c[nH]c4ccccc34)c3ncn(C(C)C)c3n2)c1
97.3

What reported viability, T/C corresponds to Nc1ccccc1NC(=O)c1ccc(CNC(=O)OCc2cccnc2)cc1 + Cc1ccccc1N=Nc1ccc(NC(=O)c2ccnn2C)c(C)c1 on 186277-243-T-J2-PDC complex spheroid growth?
108

Query for 186277-243-T-J2-PDC complex spheroid growth: what viability, T/C does the record show for NS(=O)(=O)OCC1CC(n2ccc3c(NC4CCc5ccccc54)ncnc32)CC1O (configuration not stated) + Cc1ccccc1N=Nc1ccc(NC(=O)c2ccnn2C)c(C)c1 ?
61.4

Recorded viability, T/C for CC1COCCN1c1cc(C2(S(C)(=N)=O)CC2)nc(-c2ccnc3[nH]ccc23)n1 (configuration not stated) + Cc1ccccc1N=Nc1ccc(NC(=O)c2ccnn2C)c(C)c1 with 186277-243-T-J2-PDC complex spheroid growth, please?
81.8

Please provide the recorded viability, T/C for Nc1ncn(C2CC(O)C(CO)O2)c(=O)n1 (configuration not stated) + CC(CO)NC(=O)c1cc(-c2ccc(Cl)cc2)nn(-c2cnn(C)c2)c1=O , tested on 186277-243-T-J2-PDC complex spheroid growth.
66.2

Lookup: viability, T/C / 186277-243-T-J2-PDC complex spheroid growth / Nc1ccn(C2OC(CO)C(O)C2(F)F)c(=O)n1 (configuration not stated) + Cc1ccccc1N=Nc1ccc(NC(=O)c2ccnn2C)c(C)c1
16.4

Return viability, T/C measured with 186277-243-T-J2-PDC complex spheroid growth given this compound: O=C(C=Cc1cccc(S(=O)(=O)Nc2ccccc2)c1)NO + CC(CO)NC(=O)c1cc(-c2ccc(Cl)cc2)nn(-c2cnn(C)c2)c1=O
46.7

----------
- Test system: 186277-243-T-J2-PDC complex spheroid growth
- METHOD NOTES: Anticancer human tumor 186277-243-T-J2-PDC cell line growth inhibition [AhR]; active = viability on the fitted dose curve at most 10% of control; inactive = the rest;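 also: luminescent signal used as a stand-in for viable cell amount; spheroids exposed to compounds for seven days before the viability read; 100% = DMSO vehicle control wells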
- REPORTED CONDITIONS: second compound 10 µM; first compound 3.16 µM
- From the text: Multicellular complex tumor spheroid response to aryl hydrocarbon receptor antagonists in combination with a variety of drugs and investigational agents in selected tumor cell lines […] Compounds. […] If the clinical Cmax for an agent had not been determined, the highest concentration tested was 10 microM (Table 1). […]
API: response.call in yes (active), no (inactive)

Consider the worked cases shown below.
{"MOLECULE": "COc1ccc([C@@H](O)c2cc(-c3ncnc4cc(N5CCOCC5)ccc34)c(F)cc2Cl)nn1 + CC(CO)NC(=O)c1cc(-c2ccc(Cl)cc2)nn(-c2cnn(C)c2)c1=O", "TARGET OF ASSAY": "186277-243-T-J2-PDC complex spheroid growth", "CLASS": "no"}
{"MOLECULE": "CC(C)c1c(-c2ccccc2)nc2c(C#N)c[nH]n2c1=O + Cc1ccccc1N=Nc1ccc(NC(=O)c2ccnn2C)c(C)c1", "TARGET OF ASSAY": "186277-243-T-J2-PDC complex spheroid growth", "CLASS": "no"}
{"MOLECULE": "NS(=O)(=O)OCC1CC(n2ccc3c(NC4CCc5ccccc54)ncnc32)CC1O (configuration not stated) + Cc1ccccc1N=Nc1ccc(NC(=O)c2ccnn2C)c(C)c1", "TARGET OF ASSAY": "186277-243-T-J2-PDC complex spheroid growth", "CLASS": "no"}
{"MOLECULE": "COc1cc(C2c3cc4c(cc3C(OC3OC5COC(C)OC5C(O)C3O)C3COC(=O)C23)OCO4)cc(OC)c1O (configuration not stated) + Cc1ccccc1N=Nc1ccc(NC(=O)c2ccnn2C)c(C)c1", "TARGET OF ASSAY": "186277-243-T-J2-PDC complex spheroid growth", "CLASS": "no"}
{"MOLECULE": "CC1(C)CCC(CN2CCN(c3ccc(C(=O)NS(=O)(=O)c4ccc(NCC5CCOCC5)c([N+](=O)[O-])c4)c(Oc4cnc5[nH]ccc5c4)c3)CC2)=C(c2ccc(Cl)cc2)C1 + Cc1cncc(-c2nc(NCCc3c[nH]c4ccccc34)c3ncn(C(C)C)c3n2)c1", "TARGET OF ASSAY": "186277-243-T-J2-PDC complex spheroid growth", "CLASS": "no"}
{"MOLECULE": "COc1cccc2c1C(=O)c1c(O)c3c(c(O)c1C2=O)CC(O)(C(=O)CO)CC3OC1CC(N)C(O)C(C)O1 (configuration not stated) + CC(CO)NC(=O)c1cc(-c2ccc(Cl)cc2)nn(-c2cnn(C)c2)c1=O", "TARGET OF ASSAY": "186277-243-T-J2-PDC complex spheroid growth", "CLASS": "yes"}

What did this assay record as the result for Nc1ccn(C2OC(CO)C(O)C2(F)F)c(=O)n1 (configuration not stated) + Cc1ccccc1N=Nc1ccc(NC(=O)c2ccnn2C)c(C)c1 ?
no

Per the assay record, what outcome was assigned to NS(=O)(=O)OCC1CC(n2ccc3c(NC4CCc5ccccc54)ncnc32)CC1O (configuration not stated) + CC(CO)NC(=O)c1cc(-c2ccc(Cl)cc2)nn(-c2cnn(C)c2)c1=O ?
yes

Name the outcome recorded for O=C(C=Cc1cccc(S(=O)(=O)Nc2ccccc2)c1)NO + Cc1cncc(-c2nc(NCCc3c[nH]c4ccccc34)c3ncn(C(C)C)c3n2)c1 in the assay.
yes

I would be grateful if you could indicate the recorded call for CC1COCCN1c1cc(C2(S(C)(=N)=O)CC2)nc(-c2ccnc3[nH]ccc23)n1 (configuration not stated) + Cc1cncc(-c2nc(NCCc3c[nH]c4ccccc34)c3ncn(C(C)C)c3n2)c1 .
no

Record request — test call for CC1COCCN1c1cc(C2(S(C)(=N)=O)CC2)nc(-c2ccnc3[nH]ccc23)n1 (configuration not stated) + Cc1ccccc1N=Nc1ccc(NC(=O)c2ccnn2C)c(C)c1
no

For O=C(C=Cc1cccc(S(=O)(=O)Nc2ccccc2)c1)NO + CC(CO)NC(=O)c1cc(-c2ccc(Cl)cc2)nn(-c2cnn(C)c2)c1=O , what call appears in the results of this test?
yes
